Biological target: T1, CRY-DASH (VcCry1, MBP fusion) (Vibrio cholerae, UniProt Q9KR33 1-461)
T1 sequence: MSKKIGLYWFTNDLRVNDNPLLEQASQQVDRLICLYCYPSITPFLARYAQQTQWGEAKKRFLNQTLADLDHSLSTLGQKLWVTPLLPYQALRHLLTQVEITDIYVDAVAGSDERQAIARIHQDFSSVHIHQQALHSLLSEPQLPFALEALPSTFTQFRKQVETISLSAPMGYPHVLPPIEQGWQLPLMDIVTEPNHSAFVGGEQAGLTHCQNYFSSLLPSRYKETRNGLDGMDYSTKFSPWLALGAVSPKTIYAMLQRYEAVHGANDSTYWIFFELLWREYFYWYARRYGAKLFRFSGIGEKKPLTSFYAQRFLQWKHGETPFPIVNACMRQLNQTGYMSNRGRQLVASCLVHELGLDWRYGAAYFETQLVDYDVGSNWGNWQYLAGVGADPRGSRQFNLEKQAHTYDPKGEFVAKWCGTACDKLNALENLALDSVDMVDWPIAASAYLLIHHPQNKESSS
Experiment: SPR; photoactivated, DTT; nonspecific, similar to BSA; SPR (SensiQ Discovery, neutravidin BioCap chip), 1X PBS (10 mM phosphate, 2.7 mM KCl, 137 mM NaCl) pH 7.4, 0.005% Tween 20, 25 C, 50 uL/min; protein in PBS with 1 mM DTT
Settings: protein: recombinant; tags: MBP (pMal-c2x, pUNC2002); label: 5'-biotin
Reported Property: Kd (µM)
Quick reminder: number only, in µM, skip the unit.

Entry GACGCAGATCTACGAATTCGCTTAATTCGCTGCACCGGATCCCGCTAG (ssDNA) [undamaged ssDNA 48-mer] ; Kd = 117
